Could you please report measured recombinant UMI read abundance (log10) for the items listed next?
experiment: recombinant UMI read abundance after kanamycin selection (control-corrected) (log10(CPM+1)); higher = more efficient recombination; extreme values may be limits of the assay; sequences stand for … in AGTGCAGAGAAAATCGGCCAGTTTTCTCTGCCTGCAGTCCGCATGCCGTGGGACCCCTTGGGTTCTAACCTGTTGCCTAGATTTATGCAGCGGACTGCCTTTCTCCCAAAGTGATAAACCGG…AGGTTGGTTTCACT; site = the 11-nt donor
Answer using only a numeral; do not append any unit.

-- ask What does the data say about its recombinant UMI read abundance (log10)? Entry: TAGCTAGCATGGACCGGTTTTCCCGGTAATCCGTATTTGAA (site TAGCTAGCTGT)
-- reply 1.28

-- ask What does the data say about its recombinant UMI read abundance (log10)? Entry: AGGAAGGCATGGACCGGTTTTCCCGGTAATCCGTATTTGCA (site AGGAAGGCTTG)
-- reply 2.41

-- ask What does the data say about its recombinant UMI read abundance (log10)? Entry: AGATGAGCATGGACCGGTTTTCCCGGTAATCCGTATTTGCA (site AGATGAGCTTG)
-- reply 2.71

-- ask What does the data say about its recombinant UMI read abundance (log10)? Entry: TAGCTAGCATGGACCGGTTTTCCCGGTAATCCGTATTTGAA (site GAGCTAGCTTT)
-- reply 0

-- ask What does the data say about its recombinant UMI read abundance (log10)? Entry: ACACCTACATGGACCGGTTTTCCCGGTAATCCGTATTTGTG (site ACATCTACTCA)
-- reply 0.028

-- ask What does the data say about its recombinant UMI read abundance (log10)? Entry: AGCTTAGCATGGACCGGTTTTCCCGGTAATCCGTATTTGGG (site AGCTAAGCTCC)
-- reply 0.0186

-- ask What does the data say about its recombinant UMI read abundance (log10)? Entry: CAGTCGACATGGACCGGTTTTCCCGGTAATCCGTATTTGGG (site CCGTCGACTCC)
-- reply 0.00307

-- ask What does the data say about its recombinant UMI read abundance (log10)? Entry: TGCAATCCATGGACCGGTTTTCCCGGTAATCCGTATTTGAA (site TGCAATCCTTT)
-- reply 1.16

-- ask What does the data say about its recombinant UMI read abundance (log10)? Entry: GCCTACTCATGGACCGGTTTTCCCGGTAATCCGTATTTGGA (site GCCTACTCTTC)
-- reply 1.91

-- ask What does the data say about its recombinant UMI read abundance (log10)? Entry: GGATGGACATGGACCGGTTTTCCCGGTAATCCGTATTTGCC (site GGATGGACTGG)
-- reply 2.47

-- ask What does the data say about its recombinant UMI read abundance (log10)? Entry: ACGCATCCATGGACCGGTTTTCCCGGTAATCCGTATTTGAC (site ACACATCCTGT)
-- reply 1.31

-- ask What does the data say about its recombinant UMI read abundance (log10)? Entry: CTAGTCTCATGGACCGGTTTTCCCGGTAATCCGTATTTGAG (site CTAGTCTCTCT)
-- reply 0.61

-- ask What does the data say about its recombinant UMI read abundance (log10)? Entry: CCACATCCATGGACCGGTTTTCCCGGTAATCCGTATTTGAC (site ACACATCCTGT)
-- reply 0

-- ask What does the data say about its recombinant UMI read abundance (log10)? Entry: ACGGGACCATGGACCGGTTTTCCCGGTAATCCGTATTTGTA (site ACGGGACCTTA)
-- reply 0.00398

-- ask What does the data say about its recombinant UMI read abundance (log10)? Entry: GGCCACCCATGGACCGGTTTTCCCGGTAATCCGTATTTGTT (site GGCCACGCTAA)
-- reply 0.0127

-- ask What does the data say about its recombinant UMI read abundance (log10)? Entry: AGGAAACCATGGACCGGTTTTCCCGGTAATCCGTATTTGTT (site CGGAATCCTAA)
-- reply 0

-- ask What does the data say about its recombinant UMI read abundance (log10)? Entry: GCAAAAACATGGACCGGTTTTCCCGGTAATCCGTATTTGCT (site GCGAAAACTAG)
-- reply 0

-- ask What does the data say about its recombinant UMI read abundance (log10)? Entry: ATGTTCCCATGGACCGGTTTTCCCGGTAATCCGTATTTGTG (site ATGTTCCCTCA)
-- reply 0.419

----------
Could you please report measured recombinant barcode read abundance (log10) for the items listed next?
experiment: recombinant barcode read abundance after kanamycin selection (control-corrected) (log10(CPM+1)); higher = more efficient recombination; sequences stand for … in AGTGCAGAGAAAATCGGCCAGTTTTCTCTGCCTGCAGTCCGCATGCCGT…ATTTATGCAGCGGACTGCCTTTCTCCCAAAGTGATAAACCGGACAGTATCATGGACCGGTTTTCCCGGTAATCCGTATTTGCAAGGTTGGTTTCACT; site = the 11-nt target
Answer using only a numeral; do not append any unit.

-- ask What does the data say about its recombinant barcode read abundance (log10)? Entry: CGGTCCCTTTGGGTTCTAACCTGTTGCCAAG [CGGTCCCCTTG_LTGcore_TT_RTGcore_CT] (site CGGTCCCCTTG) (LTG core: TT, RTG core: CT)
-- reply 0.0132

-- ask What does the data say about its recombinant barcode read abundance (log10)? Entry: GGTGCCCTTTGGGTTCTAACCTGTTGCCGAA [GGTGCCCCTCG_LTGcore_TT_RTGcore_TT] (site GGTGCCCCTCG) (LTG core: TT, RTG core: TT)
-- reply 0.622

-- ask What does the data say about its recombinant barcode read abundance (log10)? Entry: AGGCCTCCATGGGTTCTAACCTGTTGCCTTG [AGGCCTCCTAG_LTGcore_CA_RTGcore_CA] (site AGGCCTCCTAG) (LTG core: CA, RTG core: CA)
-- reply 0.128

-- ask What does the data say about its recombinant barcode read abundance (log10)? Entry: TGTATTCGATGGGTTCTAACCTGTTGCCTAG [TGTATTCCTAG_LTGcore_GA_RTGcore_CT] (site TGTATTCCTAG) (LTG core: GA, RTG core: CT)
-- reply 0.0114

-- ask What does the data say about its recombinant barcode read abundance (log10)? Entry: ATGTCCCTCTGGGTTCTAACCTGTTGCTCAG [ATGTCCCCTGA_LTGcore_TC_RTGcore_CT] (site ATGTCCCCTGA) (LTG core: TC, RTG core: CT)
-- reply 0.209

-- ask What does the data say about its recombinant barcode read abundance (log10)? Entry: TGATACCCTTGGGTTCTAACCTGTTGCGTCA [TGATACCCTAC_LTGcore_CT_RTGcore_TG] (site TGATACCCTAC) (LTG core: CT, RTG core: TG)
-- reply 0.796

-- ask What does the data say about its recombinant barcode read abundance (log10)? Entry: TCGCGACCGTGGGTTCTAACCTGTTGCCGCG [TCGCGACCTCG_LTGcore_CG_RTGcore_CG] (site TCGCGACCTCG) (LTG core: CG, RTG core: CG)
-- reply 0.0313

-- ask What does the data say about its recombinant barcode read abundance (log10)? Entry: TCTACCCAGTGGGTTCTAACCTGTTGCTGCT [TCTACCCCTCA_LTGcore_AG_RTGcore_AG] (site TCTACCCCTCA) (LTG core: AG, RTG core: AG)
-- reply 0.24

-- ask What does the data say about its recombinant barcode read abundance (log10)? Entry: ACGGGACGCTGGGTTCTAACCTGTTGCAGGC [ACGGGACCTCT_LTGcore_GC_RTGcore_GC] (site ACGGGACCTCT) (LTG core: GC, RTG core: GC)
-- reply 0.151

-- ask What does the data say about its recombinant barcode read abundance (log10)? Entry: ATGTCCCGTTGGGTTCTAACCTGTTGCTCAC [ATGTCCCCTGA_LTGcore_GT_RTGcore_GT] (site ATGTCCCCTGA) (LTG core: GT, RTG core: GT)
-- reply 0.0823

-- ask What does the data say about its recombinant barcode read abundance (log10)? Entry: GGGCGTGCCTGGGTTCTAACCTGTTGCCTAG [GGGCGTGCTAG_LTGcore_CC_RTGcore_CT] (site GGGCGTGCTAG) (LTG core: CC, RTG core: CT)
-- reply 0.255

----------
assay: recombinant barcode read abundance after kanamycin selection (control-corrected) (log10(CPM+1)); higher = more efficient recombination; sequences stand for … in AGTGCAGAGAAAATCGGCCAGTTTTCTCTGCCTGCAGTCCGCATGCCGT…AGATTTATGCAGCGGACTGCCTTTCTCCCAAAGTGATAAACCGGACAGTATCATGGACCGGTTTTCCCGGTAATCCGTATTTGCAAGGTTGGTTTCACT; site = the 11-nt target
measured-attribute: recombinant barcode read abundance (log10)
Answer using only a numeral; do not append any unit.

-- ask What does the data say about its recombinant barcode read abundance (log10)? Entry: CTAACCTCTTGGGTTCTAACCTGTTGCTG (site CTAACCTCTGA)
-- reply 0.0869

-- ask What does the data say about its recombinant barcode read abundance (log10)? Entry: CTACCGTCTTGGGTTCTAACCTGTTGCGG (site CTACCATCTCG)
-- reply 0.285

-- ask What does the data say about its recombinant barcode read abundance (log10)? Entry: GGAGCTCCTTGGGTTCTAACCTGTTGCCG (site ACTCACACTAA)
-- reply 0.152

-- ask What does the data say about its recombinant barcode read abundance (log10)? Entry: AGTCCTGCTTGGGTTCTAACCTGTTGCCT (site CGTCCTGCTAG)
-- reply 0.072

-- ask What does the data say about its recombinant barcode read abundance (log10)? Entry: TAACCTGCTTGGGTTCTAACCTGTTGCCT (site TAACCTGCTAG)
-- reply 0.889

-- ask What does the data say about its recombinant barcode read abundance (log10)? Entry: AGGCCGTCTTGGGTTCTAACCTGTTGCGG (site CACTACCCTAA)
-- reply 0.357

-- ask What does the data say about its recombinant barcode read abundance (log10)? Entry: TAGGAACCTTGGGTTCTAACCTGTTGCGT (site TAGGAACCTAC)
-- reply 3.35

-- ask What does the data say about its recombinant barcode read abundance (log10)? Entry: GTATGAGCTTGGGTTCTAACCTGTTGCCT (site GTATGATCTAG)
-- reply 0.135

-- ask What does the data say about its recombinant barcode read abundance (log10)? Entry: CTCTCGTCTTGGGTTCTAACCTGTTGCGT (site CTCTCGTCTAC)
-- reply 1.19

-- ask What does the data say about its recombinant barcode read abundance (log10)? Entry: CCGCGAGCTTGGGTTCTAACCTGTTGCCG (site GATGTGCCTAC)
-- reply 0.137

Measured values drawn from the supplement of paper PMC11208160 for this set.
